The origin of these recorded values is ChEMBL document CHEMBL3232915.

Molecular target: D(2) dopamine receptor (Homo sapiens, UniProt P14416)
Sequence (P14416 whole entry): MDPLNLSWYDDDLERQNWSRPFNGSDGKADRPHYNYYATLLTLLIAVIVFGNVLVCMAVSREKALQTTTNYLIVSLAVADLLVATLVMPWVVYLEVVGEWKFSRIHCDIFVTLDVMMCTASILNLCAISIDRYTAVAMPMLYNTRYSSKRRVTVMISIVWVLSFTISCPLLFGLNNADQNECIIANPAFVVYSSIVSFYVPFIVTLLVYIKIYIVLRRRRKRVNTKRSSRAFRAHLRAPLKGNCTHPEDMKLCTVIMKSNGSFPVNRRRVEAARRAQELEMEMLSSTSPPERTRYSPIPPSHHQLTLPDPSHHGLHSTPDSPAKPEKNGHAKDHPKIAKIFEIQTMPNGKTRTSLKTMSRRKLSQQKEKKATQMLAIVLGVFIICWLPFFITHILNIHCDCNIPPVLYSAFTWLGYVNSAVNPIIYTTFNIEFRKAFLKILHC
Test: Antagonist activity at D2 receptor (unknown origin) expressed in Flp-In TREx 293 cells coexpressing chimeric Gqi5 protein assessed as calcium accumulation by Fluo-8AM dye based fluorescence analysis
Assay type: functional, cell-based
Threshold-based label: AC50 under 400 nM gives 1 (yes), AC50 not under 400 nM gives 0 (no).

See these solved cases before continuing.
1) CN1C(=O)c2ccccc2[S+]([O-])c2ccc(C(=O)NCc3ccc(Cl)cc3)cc21 (racemic): 1 (yes)
2) CCN1C(=O)c2ccccc2[S@+]([O-])c2ccc(C(=O)N[C@H](C)c3ccc4ccccc4c3)cc21: 1 (yes)

Next item in the queue.
Could you please tell me whether AC50 recorded for CCN1C(=O)c2ccccc2[S+]([O-])c2ccc(C(=O)Nc3ccccc3)cc21 (racemic) is less than 400 nM?
0 (no)
